- measurementParameters: in THF, 318.24 K
observedProperty: solubility (mole fraction)
Answers are plain numbers.

// field: solubility (mole fraction); key: "O=C(O)c1cccc([N+](=O)[O-])c1C(=O)O" ; value = 0.21

----------
- measurementParameters: in water, 318.29 K
observedProperty: solubility (mole fraction)
Numbers only.

solubility (mole fraction) recorded for this compound, "O=C(O)c1cccc([N+](=O)[O-])c1C(=O)O" , is 0.00367

----------
- measurementParameters: in THF, 278.28 K
observedProperty: solubility (mole fraction)
One number for each entry.

Query "O=C(O)c1cccc([N+](=O)[O-])c1C(=O)O" yields solubility (mole fraction) of 0.203
